src = patent US20190076436A1

- ASSAY_SYSTEM: L2026M ROS1 (Homo sapiens, UniProt P08922, L2026M)
- Sequence (P08922 28-2347 L2026M): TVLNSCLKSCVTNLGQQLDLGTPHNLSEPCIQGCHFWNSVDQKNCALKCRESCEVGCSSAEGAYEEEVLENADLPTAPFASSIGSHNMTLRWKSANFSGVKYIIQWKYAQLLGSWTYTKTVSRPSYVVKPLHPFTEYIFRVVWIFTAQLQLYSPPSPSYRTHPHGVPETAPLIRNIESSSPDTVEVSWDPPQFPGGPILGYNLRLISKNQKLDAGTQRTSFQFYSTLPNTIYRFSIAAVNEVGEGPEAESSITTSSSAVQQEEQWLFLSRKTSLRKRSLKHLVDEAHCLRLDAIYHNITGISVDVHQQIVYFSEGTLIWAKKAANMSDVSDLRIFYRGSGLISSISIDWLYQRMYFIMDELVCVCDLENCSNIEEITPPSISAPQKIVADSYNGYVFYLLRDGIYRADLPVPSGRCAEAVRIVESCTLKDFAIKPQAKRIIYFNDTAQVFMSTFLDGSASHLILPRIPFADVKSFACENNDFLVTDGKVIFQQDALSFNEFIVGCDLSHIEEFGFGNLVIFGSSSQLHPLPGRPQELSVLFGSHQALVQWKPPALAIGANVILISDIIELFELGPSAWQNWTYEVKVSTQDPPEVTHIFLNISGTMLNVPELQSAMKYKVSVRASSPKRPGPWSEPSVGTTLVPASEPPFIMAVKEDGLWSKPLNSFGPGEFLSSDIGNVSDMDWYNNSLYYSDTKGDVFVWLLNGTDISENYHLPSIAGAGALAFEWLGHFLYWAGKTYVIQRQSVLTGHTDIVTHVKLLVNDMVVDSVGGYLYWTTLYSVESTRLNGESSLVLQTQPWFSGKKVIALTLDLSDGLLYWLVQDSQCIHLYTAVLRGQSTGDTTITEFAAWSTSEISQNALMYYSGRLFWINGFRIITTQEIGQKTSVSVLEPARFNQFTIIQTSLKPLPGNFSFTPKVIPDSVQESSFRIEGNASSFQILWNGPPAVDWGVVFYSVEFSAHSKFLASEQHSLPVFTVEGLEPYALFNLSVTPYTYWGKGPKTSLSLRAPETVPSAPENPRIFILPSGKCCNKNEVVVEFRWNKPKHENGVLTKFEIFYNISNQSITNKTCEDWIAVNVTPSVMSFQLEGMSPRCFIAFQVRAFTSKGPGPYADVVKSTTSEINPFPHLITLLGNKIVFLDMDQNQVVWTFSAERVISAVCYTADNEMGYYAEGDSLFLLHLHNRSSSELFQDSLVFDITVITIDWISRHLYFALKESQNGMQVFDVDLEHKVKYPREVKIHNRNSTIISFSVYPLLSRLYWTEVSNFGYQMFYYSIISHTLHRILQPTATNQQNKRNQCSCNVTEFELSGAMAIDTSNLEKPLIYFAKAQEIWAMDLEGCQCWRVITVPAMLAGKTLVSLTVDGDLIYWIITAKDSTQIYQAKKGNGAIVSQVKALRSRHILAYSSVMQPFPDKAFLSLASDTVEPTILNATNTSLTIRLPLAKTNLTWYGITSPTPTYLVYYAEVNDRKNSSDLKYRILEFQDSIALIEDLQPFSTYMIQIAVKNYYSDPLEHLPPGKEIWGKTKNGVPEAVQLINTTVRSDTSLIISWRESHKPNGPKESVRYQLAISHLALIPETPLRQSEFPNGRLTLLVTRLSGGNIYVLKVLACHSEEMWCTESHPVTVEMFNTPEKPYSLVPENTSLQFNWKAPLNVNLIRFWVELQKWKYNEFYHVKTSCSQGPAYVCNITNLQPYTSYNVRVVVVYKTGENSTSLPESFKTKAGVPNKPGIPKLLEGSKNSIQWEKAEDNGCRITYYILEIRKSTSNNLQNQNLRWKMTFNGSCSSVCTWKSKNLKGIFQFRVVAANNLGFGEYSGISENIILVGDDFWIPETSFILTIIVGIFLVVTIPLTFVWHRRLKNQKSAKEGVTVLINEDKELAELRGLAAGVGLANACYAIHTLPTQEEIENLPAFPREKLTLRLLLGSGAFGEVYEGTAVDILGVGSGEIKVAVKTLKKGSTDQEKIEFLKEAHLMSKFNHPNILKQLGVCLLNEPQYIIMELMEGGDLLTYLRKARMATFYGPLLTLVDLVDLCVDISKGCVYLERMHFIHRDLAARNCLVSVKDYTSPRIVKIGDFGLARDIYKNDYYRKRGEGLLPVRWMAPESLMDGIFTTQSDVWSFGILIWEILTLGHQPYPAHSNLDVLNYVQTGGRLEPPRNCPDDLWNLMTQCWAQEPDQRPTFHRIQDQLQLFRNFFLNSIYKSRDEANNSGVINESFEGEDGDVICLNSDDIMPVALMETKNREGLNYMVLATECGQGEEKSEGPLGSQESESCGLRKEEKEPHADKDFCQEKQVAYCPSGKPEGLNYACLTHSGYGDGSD
- ASSAY_NAME: Inhibition of L2026M ROS1 kinase, CisBio HTRF KinEASE-TK assay
READOUT_TYPE: IC50 (nM)
The reply should contain only the number, in nM.

Consider the reported IC50 for these molecules:
MOLECULE | IC50 (nM)
O=C1NC[C@@H](O)COc2ncc(F)cc2[C@H]2CCCN2c2ccn3ncc1c3n2 | 2.9
CC(=O)N1CCOc2ccc(F)cc2[C@H]2CCCN2c2ccn3ncc(c3n2)C1 | 713
O=C1NC[C@H](O)COc2ccc(F)cc2C2CC(F)(F)CN2c2ccn3ncc1c3n2 (single isomer, unassigned) | 4.6

Shift focus to the following entry.
Ask | Recall the reported IC50 of `O=C1NCCCOc2ccc(F)cc2[C@H]2CCCN2c2ccn3ncc1c3n2` when tested on L2026M ROS1 (Homo sapiens, UniProt P08922, L2026M).
Reply | 2.2

###

Reported IC50 values for the following compounds.
- ASSAY_SYSTEM: L2026M ROS1 (Homo sapiens, UniProt P08922, L2026M)
- ASSAY_NAME: Inhibition of L2026M ROS1 kinase, CisBio HTRF KinEASE-TK assay
Enter your answer as a number in nM; do not include the unit.

COMPOUND | OUTPUT_UNIT | IC50
O=C1OCCOc2ncc(F)cc2[C@H]2CCCN2c2ccn3ncc1c3n2 [Compound 14] | nM | 30.3

Ask | Supply IC50 measured with L2026M ROS1 (Homo sapiens, UniProt P08922, L2026M) for C[C@H]1CNC(=O)c2cnn3ccc(nc23)N2CCC[C@@H]2c2cc(F)cn(c2=O)C1 [Compound 35] .
Reply | 589

Ask | Under L2026M ROS1 (Homo sapiens, UniProt P08922, L2026M): report IC50 of O=C1NCCCOc2cccc(n2)[C@H]2CCCN2c2ccn3ncc1c3n2 [Compound 2] .
Reply | 67

Ask | Answer with IC50 of O=C1NCCCOc2ncc(F)cc2[C@H]2CCCN2c2ccn3ncc1c3n2 [Compound 3] measured for L2026M ROS1 (Homo sapiens, UniProt P08922, L2026M).
Reply | 1.2

Ask | Report measured IC50 on L2026M ROS1 (Homo sapiens, UniProt P08922, L2026M); entry: O=C1NCC(F)(F)COc2ncc(F)cc2[C@H]2CCCN2c2ccn3ncc1c3n2 [Compound 19]
Reply | 2.4

Ask | Name the recorded IC50 of O=C1NCCOc2ncc(F)cc2[C@H]2CCCN2c2ccn3ncc1c3n2 [Compound 9] , assay system L2026M ROS1 (Homo sapiens, UniProt P08922, L2026M).
Reply | 10.2

###

- ASSAY_SYSTEM: D2033N ROS1 (Homo sapiens, UniProt P08922, D2033N)
- Sequence (P08922 28-2347 D2033N): as the sequence (P08922 28-2347 L2026M) above, with M1999L, D2006N counted along it
- ASSAY_NAME: Inhibition of D2033N ROS1 kinase, CisBio HTRF KinEASE-TK assay
Each record here notes measured IC50.
Reply with just the number (in nM).

Example cases with answers are listed next.
COMPOUND | IC50, nM
O=C1NCCOc2ncc(F)cc2[C@H]2CCCN2c2ccn3ncc1c3n2 [Compound 9] | 1.7
O=C1NC[C@@H](O)COc2ncc(F)cc2[C@H]2CCCN2c2ccn3ncc1c3n2 [Compound 7] | 0.6
C[C@H]1CNC(=O)c2cnn3ccc(nc23)N2CCC[C@@H]2c2cc(F)cn(c2=O)C1 [Compound 35] | 260

Ask | Check the records and state IC50 for O=C1OCCOc2ncc(F)cc2[C@H]2CCCN2c2ccn3ncc1c3n2 [Compound 14]
Reply | 7.6

Ask | Return IC50 for the following compound: O=C1NCCCOc2ncc(F)cc2[C@H]2CCCN2c2ccn3ncc1c3n2 [Compound 3]
Reply | 0.3

###

- ASSAY_SYSTEM: G2032R ROS1 (Homo sapiens, UniProt P08922, G2032R)
- Sequence (P08922 1883-2347 G2032R limits assumed): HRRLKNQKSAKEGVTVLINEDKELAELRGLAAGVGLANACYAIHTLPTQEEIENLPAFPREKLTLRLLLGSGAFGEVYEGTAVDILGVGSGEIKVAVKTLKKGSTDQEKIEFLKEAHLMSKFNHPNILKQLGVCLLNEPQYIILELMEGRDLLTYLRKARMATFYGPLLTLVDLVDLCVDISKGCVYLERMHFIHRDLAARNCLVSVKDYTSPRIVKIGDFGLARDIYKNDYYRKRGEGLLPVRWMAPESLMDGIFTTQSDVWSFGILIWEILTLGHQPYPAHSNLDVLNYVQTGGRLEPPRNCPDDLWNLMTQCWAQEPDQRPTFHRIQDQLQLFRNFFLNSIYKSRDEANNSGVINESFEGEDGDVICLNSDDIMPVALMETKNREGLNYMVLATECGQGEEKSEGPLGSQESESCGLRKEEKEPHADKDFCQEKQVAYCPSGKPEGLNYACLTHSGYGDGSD
- ASSAY_NAME: Inhibition of G2032R ROS1 kinase, CisBio HTRF KinEASE-TK assay
- Procedure: The potency of a compound inhibiting wild type and exemplary mutant ROS1 kinases was determined using CisBio's HTRF Kinease-TK assay technology. […] No. […] No. […] After a 1 hour incubation at 22° C., the extent of reaction was determined using a PerkinElmer EnVision multimode plate reader via HTRF dual wavelength detection, and the percent of control (POC) was calculated using a ratiometric emission factor. 100 POC is determined using no test compound and 0 POC is determined in the absence of enzyme.
READOUT_TYPE: IC50 (nM)
The answer is to be given in nM; state only the numeric part.

COMPOUND | ASSAY_SYSTEM | OUTPUT_UNIT | IC50
O=C1NC[C@@H](O)COc2ncc(F)cc2[C@H]2CCCN2c2ccn3ncc1c3n2 [Compound 7] | G2032R ROS1 (Homo sapiens, UniProt P08922, G2032R) | nM | 29.2
CC(=O)N1CCOc2ccc(F)cc2[C@H]2CCCN2c2ccn3ncc(c3n2)C1 [Compound 22] | G2032R ROS1 (Homo sapiens, UniProt P08922, G2032R) | nM | 3980
O=C1NCCCOc2ncc(F)cc2[C@H]2CCCN2c2ccn3ncc1c3n2 [Compound 3] | G2032R ROS1 (Homo sapiens, UniProt P08922, G2032R) | nM | 9.4
O=C1OCCOc2ncc(F)cc2[C@H]2CCCN2c2ccn3ncc1c3n2 [Compound 14] | G2032R ROS1 (Homo sapiens, UniProt P08922, G2032R) | nM | 107
O=C1NCCCOc2ccc(F)cc2[C@H]2CCCN2c2ccn3ncc1c3n2 [Compound 20] | G2032R ROS1 (Homo sapiens, UniProt P08922, G2032R) | nM | 21.6

With those in mind, consider the next compound.
Ask | Could you please provide reported IC50 for O=C1NCCOc2ncc(F)cc2[C@H]2CCCN2c2ccn3ncc1c3n2 [Compound 9] ? Thanks!
Reply | 98.6

###

- ASSAY_SYSTEM: G2032R ROS1 (Homo sapiens, UniProt P08922, G2032R)
- ASSAY_NAME: Inhibition of G2032R ROS1 kinase, CisBio HTRF KinEASE-TK assay
READOUT_TYPE: IC50 (nM)
Form entry: value (nM) — number only.

COMPOUND | OUTPUT_UNIT | IC50
O=C1NCC(F)(F)COc2ncc(F)cc2[C@H]2CCCN2c2ccn3ncc1c3n2 | nM | 14.4
O=C1NCCCOc2cccc(n2)[C@H]2CCCN2c2ccn3ncc1c3n2 | nM | 1060
O=C1NC[C@H](O)COc2ccc(F)cc2C2CC(F)(F)CN2c2ccn3ncc1c3n2 (single isomer, unassigned) | nM | 114

Now look at this entry.
Ask | Tell me its IC50 on G2032R ROS1 (Homo sapiens, UniProt P08922, G2032R): `C[C@H]1CNC(=O)c2cnn3ccc(nc23)N2CCC[C@@H]2c2cc(F)cn(c2=O)C1`
Reply | 4930

###

Entries with their measured pIC50, system wild type ROS1 (Homo sapiens):
In simple prose, pIC50 is minus the logarithm base ten of a concentration in moles per litre.

COMPOUND | ASSAY_SYSTEM | READOUT_TYPE | REPORTED
O=C1NCCCOc2ccc(F)cc2[C@H]2CCCN2c2ccn3ncc1c3n2 [Compound 20] | wild type ROS1 (Homo sapiens) | pIC50 | 8.60
C[C@H]1CNC(=O)c2cnn3ccc(nc23)N2CCC[C@@H]2c2cc(F)cn(c2=O)C1 [Compound 35] | wild type ROS1 (Homo sapiens) | pIC50 | 6.11
O=C1NC[C@H](O)COc2ccc(F)cc2C2CC(F)(F)CN2c2ccn3ncc1c3n2 (single isomer, unassigned) [Compound 45] | wild type ROS1 (Homo sapiens) | pIC50 | 8.21

Ask | Report measured pIC50; entry is O=C1OCCOc2ncc(F)cc2[C@H]2CCCN2c2ccn3ncc1c3n2 [Compound 14]
Reply | 7.54

Ask | Return pIC50 (reported value) for this compound: O=C1NCCOc2ncc(F)cc2[C@H]2CCCN2c2ccn3ncc1c3n2 [Compound 9]
Reply | 8.04

Ask | Quote pIC50 reported for O=C1NCCCOc2ncc(F)cc2[C@H]2CCCN2c2ccn3ncc1c3n2 [Compound 3] please.
Reply | 8.92

###

- ASSAY_SYSTEM: D2033N ROS1 (Homo sapiens, UniProt P08922, D2033N)
- ASSAY_NAME: Inhibition of D2033N ROS1 kinase, CisBio HTRF KinEASE-TK assay
pIC50: −log10 of the molar value.
# label = y if pIC50 >= 8 else n

Below, 2 molecules whose answers are already recorded.
TEST_SMILES | ASSAY_SYSTEM | ANSWER_LABEL
O=C1NCCCOc2ccc(F)cc2[C@H]2CCCN2c2ccn3ncc1c3n2 | D2033N ROS1 (Homo sapiens, UniProt P08922, D2033N) | y
CC(=O)N1CCOc2ccc(F)cc2[C@H]2CCCN2c2ccn3ncc(c3n2)C1 | D2033N ROS1 (Homo sapiens, UniProt P08922, D2033N) | n

Ask | Say whether `O=C1NCC(F)(F)COc2ncc(F)cc2[C@H]2CCCN2c2ccn3ncc1c3n2` shows pIC50 of 8 or more.
Reply | y
